Entry source: patent US20130029981A1

In this section, each of the compounds is paired with its reported IC50.
test system: Pseudomonas aeruginosa PA14; assay: Static peg assay for prevention of biofilm formation (Calgary device, crystal violet); assay type: cell-based; settings: 25° C., 24 hours, Table 15; read-out: (2) IC50 (biofilm inhibition)
Supply the numeric figure in µM, leaving out any unit text.

Sample answers from the record:
>  <compound>
OC1(c2ccc(Cl)cc2)C[n+]2cccnc2N1C1CCCCCCC1 (centres unmarked) [Compound 66]

>  <result_value>
15.6

$$$$
>  <compound>
OC1(c2ccccc2)C[n+]2cccnc2N1C1CCCCCC1 (centres unmarked) [Compound 59]

>  <result_value>
5.81

$$$$
>  <compound>
CCCCCCCCCCCCCN1c2nccc[n+]2CC1(O)c1ccc(Cl)cc1 (racemic) [Compound 26]

>  <result_value>
59

$$$$
>  <compound>
CCCCCCCCCCCN1c2nccc[n+]2CC1(O)c1ccccc1 (racemic) [Compound 11]

>  <result_value>
28.6

$$$$

Record CCCCCCCCN1c2nccc[n+]2CC1(O)c1ccccc1 (racemic) [Compound 8] . Reported IC50: 11.2

----------
Test system: S. Typhimurium ATCC14028
Test: Static peg assay for prevention of biofilm formation (Calgary device, crystal violet)
Type: cell-based, Salmonella Typhimurium
Settings: 25° C., Table 16; read-out: S. Typhimurium IC50 (biofilm formation)
Description: Evaluation of the biofilm inhibitory activity of some substituted 2-amino-1H-imidazoles of the invention was carried out by growing up biofilms of S. Typhimurium ATCC14028 or SL1344 or Pseudomonas aeruginosa PA14 in the presence of different concentrations (1/2 dilution series) of biofilm inhibitors, by using the Calgary biofilm device. […] The absorbance of the resolubilized stain at 570 nm is a measure of the amount of biofilm formed. […]
pIC50: −log10 of the molar value.
Rule: satisfied for pIC50 not less than 4, not satisfied for anything less.

Consider the following illustrative entries.
>  <compound>
CC(C)CN1c2nccc[n+]2CC1(O)c1ccccc1 (racemic)

>  <assigned_label>
not satisfied

$$$$
>  <compound>
CCCCCCCCCCN1c2nccc[n+]2CC1(O)c1ccc(Cl)c(Cl)c1 (stereo not drawn)

>  <assigned_label>
satisfied

$$$$
>  <compound>
CCCCCCCCCCN1c2nccc[n+]2CC1(O)c1ccc(OC)cc1 (stereo not drawn)

>  <assigned_label>
satisfied

$$$$
>  <compound>
CC(C)N1c2nccc[n+]2CC1(O)c1ccc([N+](=O)[O-])cc1 (racemic)

>  <assigned_label>
not satisfied

$$$$
>  <compound>
CC(C)(C)N1c2nccc[n+]2CC1(O)c1ccc([N+](=O)[O-])cc1 (stereo not drawn)

>  <assigned_label>
not satisfied

$$$$

Pending compound:
Exam item: decide whether the reported pIC50 for CCCCCCCN1c2nccc[n+]2CC1(O)c1ccccc1 (racemic) is at least 4.
satisfied
